Below, each entry is listed with its recorded OD ratio (experimental group (A405 nm)/control group (A405 nm)).
# test.target: T1, human PD-L1 protein (coated antigen) (human, UniProt Q9NZQ7 19-238, limits assumed)
# T1 construct: Construct not described; also called PD-L1 antigen; antigenic protein PD-L1
# T1 sequence (Q9NZQ7 19-238 limits assumed): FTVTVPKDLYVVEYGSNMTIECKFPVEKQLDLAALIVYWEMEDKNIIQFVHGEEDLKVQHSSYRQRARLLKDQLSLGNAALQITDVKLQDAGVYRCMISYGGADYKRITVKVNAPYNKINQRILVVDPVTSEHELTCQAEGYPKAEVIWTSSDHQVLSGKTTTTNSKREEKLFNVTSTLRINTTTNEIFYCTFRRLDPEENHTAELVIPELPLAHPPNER
# experiment: PE-ELISA, crude extract on coated PD-L1
recorded.endpoint: OD ratio (experimental group (A405 nm)/control group (A405 nm))

binder | assay.value
SEQ ID NO 23 (VHH, pMECS-expressed; also called VHH numbered 23) VHH: QVQLQESGGGSVQTGGSLRLSCAASTSLYSYNYMAWFSQAPGKGREGVAAVYVGDGRPYYADSVKGRFTISLDSAKNTVYLQMNSLKPEDTAMYYCAAAPGPLSHNYWYTSANYDYWGQGTQVTVSS | > 20
SEQ ID NO 72 (VHH, pMECS-expressed; also called VHH numbered 72) VHH: QVQLQESGGGLVQPGGSLRLSCEASGLPFSIIAMSWVRQAPGKGLEWVSTINSDGGTTHYADSVKGRFTISRDNAKNTLYLQLNSLRTEDTAMYYCRRCTDIYCSGSGGWTGQGTQVTVSS | > 20
SEQ ID NO 26 (VHH, pMECS-expressed; also called VHH numbered 26) VHH: QVQLQESGGGSVQTGGSLRLSCAASTSIYNNNYMAWFSQAPGKEREGVAAVYIGDGRPYYADSVKGRFTISLDSAKNTVYLQMNSLKPEDTAMYYCAAAPGPLSRNYWYTSANYDYWGQGTQVTVSS | > 20
SEQ ID NO 85 (VHH, pMECS-expressed; also called VHH numbered 85) VHH: QVQLQESGGGSVQTGGSLRLSCAASTSIYSNNYMAWFSQAPGKGREGVAAVYIADDRPYYADSVKGRFTISLDSAKNTVYLQMNSLKPEDTAMYYCAAAPGPLSRNYWYTSANYDYWGQGTQVTVSS | > 20
SEQ ID NO 44 (VHH, pMECS-expressed; also called VHH numbered 44) VHH: QVQLQESGGGSVRTGGSLRLSCAASTSIYSLNYMAWFSQAPGKGREGVAAVYIDDGRPYYADHVKGRFTISLDTAKNTVYLQMNSLKPEDTAMYYCAAAPGPLSRNYWYTSANYDYWGQGTQVTVSS | > 20
SEQ ID NO 4 (VHH, pMECS-expressed; also called anti-PD-L1 nanobody No. 4; VHH numbered 4) VHH: QVQLQESGGGSVQTGGSLRLSCAASPSIYSANYMAWFSQAPGKGREGVAAVYIGDGRPYYADSVKGRFTISLDSAKNTVYLQMNSLKPEDTAMYYCAAAPGPLGHNYWYTSANYDYWGQGTQVTVSS | > 20
SEQ ID NO 80 (VHH, pMECS-expressed; also called VHH numbered 80) VHH: QVQLQESGGGSVQTGGSLRLSCVASTSIYSNNYMAWFSQAPGKGREGVAAVYIDDGRPYYADSVKGRFTISLDSAKNTVYLQMNSLKPEDTAMYYCAAAPGPLSRSYWYTSANYDYWGQGTQVTVSS | > 20
SEQ ID NO 70 (VHH, pMECS-expressed; also called VHH numbered 70) VHH: QVQLQESGGGLVQPGGSLRLSCAASGFTFSIRAMSWVRQAPGKGLEWVSTINSGGDSRYYADSVKGRFTISRDNAKNTMYLQLNSLKTEDTAMYYCVRCSDIYCYNGASYRGQGTQVTVSS | > 20
